assay: HUVEC growth inhibition – cell-based, human, primary screen (AID 575); details: HUVEC proliferation, CellTiter-Glo luminescence, 72 h; at 10 µM; active compounds read low;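 further: 100% = median of untreated cell wells with 0.1% DMSO on each plate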
quantity.measured: viability (%)
Use % as the unit, but write only the number.

The examples below pair each entry with its known result.
{"columns": ["compound", "units.symbol", "viability"],
 "data": [
  ["CCCOc1cccc(C(=O)N(Cc2ccco2)C2CCS(=O)(=O)C2)c1 (stereo not drawn)", "%", 98],
  ["Cc1cccc2c1nc(-c1ccccc1)n1cnnc21", "%", 92.3]
]}

IN: Which measured viability value corresponds to CNCCC(Oc1ccc(C(F)(F)F)cc1)c1ccccc1 (stereo not drawn) ?
OUT: 54.1

IN: Suppose we examine the compound "CCOC(=O)C1=C(C)N(C)C(C)=C(C(=O)OCC)C1c1cccnc1" ; what viability value has been reported?
OUT: 97.5

IN: Data request, read-out viability, for "CCN(CC(=O)Nc1ccc2c(c1)OCCO2)Cc1cc(=O)oc2cc(C)c(C)cc12"
OUT: 82.2

IN: What measured viability goes with "COc1ccc2cc(CN(CCO)C(=O)c3ccc(Br)cc3)c(=O)[nH]c2c1" ?
OUT: 90.2

IN: Bench note: what viability did "NS(=O)(=O)c1cc2c(cc1Cl)NCNS2(=O)=O" show?
OUT: 97.2

IN: Endpoint output: viability of "CCOc1ccc(OCc2cccc(C(=O)N3CCOCC3)c2)cc1" . Value?
OUT: 83.9

IN: Given the compound CCCCNC(=O)C(C#N)c1nc2ccccc2nc1N1CCCC1 (stereo not drawn) , what is its reported viability?
OUT: 89.2

IN: If you can, please state the reported viability value of "CCOc1ccc(S(=O)(=O)Nc2ccc(Cl)cn2)c(C)c1C" .
OUT: 91
